- Tested on: Enterococcus sp.
- EXPERIMENT: In vitro antibacterial evaluation: minimum inhibitory concentration (MIC), broth dilution method
- Type: cell-based
- COND: strain GC 4552

| COMPOUND | MIC Enterococcus faecalis (GC 4552) (µg/mL) |
| --- | --- |
| CC(c1ccccc1)C1NC(=O)CNC(=O)C(CO)NC(=O)C(C(O)C2CNC(=N)N2C2OC(CO)C(O)C(O)C2O)NC(=O)C(C(O)C2CNC(=N)N2)NC(=O)C(Cc2ccc(OC3OC(CO)C(OC4OC(CO)C(O)C5OC(c6ccc(-c7ccsc7)cc6)OC45)C(O)C3O)cc2)NC1=O (stereo not shown) [Example 164a] | 16 |
| CSc1ccc(C2OCC3OC(OC4C(CO)OC(Oc5ccc(CC6NC(=O)C(C(C)c7ccccc7)NC(=O)CNC(=O)C(CO)NC(=O)C(C(O)C7CNC(=N)N7C7OC(CO)C(O)C(O)C7O)NC(=O)C(C(O)C7CNC(=N)N7)NC6=O)cc5)C(O)C4O)C(O)C(O)C3O2)cc1 (stereo not shown) | 2 |
| CC(c1ccccc1)C1NC(=O)CNC(=O)C(CO)NC(=O)C(C(O)C2CNC(=N)N2C2OC(CO)C(O)C(O)C2O)NC(=O)C(C(O)C2CNC(=N)N2)NC(=O)C(Cc2ccc(OC3OC(CO)C(OC4OC(COC(=O)C(c5ccccc5)c5ccccc5)C(O)C(O)C4O)C(O)C3O)cc2)NC1=O (stereo not shown) [Example 96c] | 2 |
| CC(c1ccccc1)C1NC(=O)CNC(=O)C(CO)NC(=O)C(C(O)C2CN(Cc3ccc(C(C)(C)C)cc3)C(=N)N2C2OC(CO)C(O)C(O)C2O)NC(=O)C(C(O)C2CNC(=N)N2)NC(=O)C(Cc2ccc(OC3OC(CO)C(OC4OC5COC6(OC5C(O)C4O)C4CC5CC(C4)CC6C5)C(O)C3O)cc2)NC1=O (stereo not shown) | 16 |

All figures here come from patent US8247211B2.
